- ASSAY: cytotoxicity in mock-infected A549 cells (MTS)
- Format: cell-based
- MEASUREMENT SETUP: human
PROPERTY MEASURED: CC50 (µM)
Note: unit µM is implicit; provide only the numeric part.

Name the recorded CC50 for COc1ccc(F)c(-n2ncc3c2COC[C@H]3NC(=O)c2ncn3c2CCCC3)c1Cl (single isomer, unassigned) [Ex-9] .
3.65

###

- ASSAY: in vitro
- MEASUREMENT SETUP: human, hepatocytes
Mark YES for reported half-life at 1 μM of 9 h or greater; mark NO for anything smaller.

COMPOUND | GROUP
COc1ccccc1-n1ncc2c1COC[C@H]2NC(=O)c1ncn2c1CCCC2 [Ex-54] | YES

Evaluate CCc1c(C(=O)N[C@@H]2COCc3c2cnn3-c2ccccc2F)ncn1C [Ex-41] : half-life at 1 μM at minimum 9 h?
YES

Values were extracted from patent US20250388602A1.
